Numbers sourced from ChEMBL document CHEMBL3885881.

- Species on record: Rattus norvegicus
- protocol_description: DrugMatrix - Regimen: Daily Repeat
- Format: toxicity, organism-based, Sprague-Dawley
- Set-up: regimen Daily Repeat, gender Male, age 6-8 weeks
- condition_notes: in vivo, po, 0 mg/kg, 72 h, tissue Plasma, route oral GAVAGE, dose level Control, time 3 day, vehicle 100 % WATER
measure_name: SODIUM (MEQ/L)
Respond numerically; units are MEQ/L and should not be typed.

Some compounds with recorded SODIUM:
| compound | SODIUM (MEQ/L) |
| --- | --- |
| Nc1ccc(S(=O)(=O)Nc2ncccn2)cc1 [SULFADIAZINE] | 148.5 |
| O=C(O)c1cc(=O)c2c(OCC(O)COc3cccc4oc(C(=O)O)cc(=O)c34)cccc2o1 [CROMOLYN] | 149.67 |
| CNS(=O)(=O)Cc1ccc2[nH]cc(CCN(C)C)c2c1 | 144.43 |
| O=C(O)c1cccnc1 [NIACIN] | 142.53 |
| CCOC(N)=O | 142.88 |
| CCCc1nn(C)c2c(=O)[nH]c(-c3cc(S(=O)(=O)N4CCN(C)CC4)ccc3OCC)nc12 | 147.02 |
| CN1C2CCCC1CC(NC(=O)c1nn(C)c3ccccc13)C2 (stereo not given) [GRANISETRON] | 144.87 |
| CCN[C@@H](C)Cc1cccc(C(F)(F)F)c1 [DEXFENFLURAMINE] | 148.5 |

Complete the entry with SODIUM for CC[C@H]1OC(=O)[C@H](C)[C@@H](O[C@H]2C[C@@](C)(OC)[C@@H](O)[C@H](C)O2)[C@H](C)[C@@H](O[C@@H]2O[C@H](C)C[C@H](N(C)C)[C@H]2O)[C@](C)(OC)C[C@@H](C)C(=O)[C@H](C)[C@@H](O)[C@]1(C)O [CLARITHROMYCIN]
140.58

Complete the entry with SODIUM for OCCO [ETHYLENE GLYCOL]
147.02

###

- Organism: Rattus norvegicus
- protocol_description: DrugMatrix - Regimen: Daily Repeat
- Format: toxicity, organism-based, Sprague-Dawley
- Design: regimen Daily Repeat, gender Male, age 6-8 weeks
- condition_notes: in vivo, po, 0 mg/kg, 120 h, tissue Plasma, route oral GAVAGE, dose level Control, time 5 day, vehicle .5 % CMC
Here the recorded GLUCOSE is given for each entry.
Respond numerically; units are mg/dL and should not be typed.

Some molecules with recorded GLUCOSE:
| molecule | measure_name | output_unit | numeric_result |
| --- | --- | --- | --- |
| CCCCC1C(=O)N(c2ccccc2)N(c2ccccc2)C1=O [PHENYLBUTAZONE] | GLUCOSE | mg/dL | 158 |
| Cc1cnc(C(=O)NCCc2ccc(S(=O)(=O)NC(=O)NC3CCCCC3)cc2)cn1 [GLIPIZIDE] | GLUCOSE | mg/dL | 177.83 |

Complete the entry with GLUCOSE for CC(C)(Sc1cc(C(C)(C)C)c(O)c(C(C)(C)C)c1)Sc1cc(C(C)(C)C)c(O)c(C(C)(C)C)c1 [PROBUCOL]
168.83

Complete the entry with GLUCOSE for C[C@]12C/C(=C/O)C(=O)C[C@@H]1CC[C@@H]1[C@@H]2CC[C@@]2(C)[C@H]1CC[C@]2(C)O [OXYMETHOLONE]
177.17

###

- Organism: Rattus norvegicus
- protocol_description: DrugMatrix - Regimen: Daily Repeat
- Type: toxicity, organism-based, Sprague-Dawley
- Set-up: regimen Daily Repeat, gender Male, age 6-8 weeks
- condition_notes: in vivo, po, 1500 mg/kg, 120 h, tissue Blood, route oral GAVAGE, dose level High, time 5 day, vehicle .5 % CMC
measure_name: MEAN CORPUSCULAR VOLUME (fL)
Respond numerically; units are fL and should not be typed.

| compound | output_unit | MEAN CORPUSCULAR VOLUME |
| --- | --- | --- |
| Nc1nc2c(c(=O)[nH]1)N(C=O)C(CNc1ccc(C(=O)N[C@@H](CCC(=O)O)C(=O)O)cc1)CN2 (stereo not given in full) | fL | 61.77 |
| O=c1cc(-c2ccccc2)oc2ccc3ccccc3c12 | fL | 62.77 |
| CCOC(=O)[C@H](CCc1ccccc1)N[C@@H](C)C(=O)N1CCC[C@H]1C(=O)O | fL | 59.27 |
| CC(C)(Sc1cc(C(C)(C)C)c(O)c(C(C)(C)C)c1)Sc1cc(C(C)(C)C)c(O)c(C(C)(C)C)c1 | fL | 63.03 |

Now look at this entry.
Complete the entry with MEAN CORPUSCULAR VOLUME for "C[C@@H](O)[C@H]1C(=O)N2C(C(=O)O)=C(S[C@@H]3CN[C@H](C(=O)N(C)C)C3)[C@H](C)[C@H]12"
63.97

###

- Species on record: Rattus norvegicus
- protocol_description: DrugMatrix - Regimen: Daily Repeat
- Type: toxicity, organism-based, Sprague-Dawley
- Set-up: regimen Daily Repeat, gender Male, age 6-8 weeks
- condition_notes: in vivo, po, 100 mg/kg, 120 h, tissue Plasma, route oral GAVAGE, dose level Low, time 5 day, vehicle .5 % CMC
measure_name: TOTAL PROTEIN (G/DL)
Respond numerically; units are G/DL and should not be typed.

Some compounds with recorded TOTAL PROTEIN:
| compound | numeric_result |
| --- | --- |
| C#C[C@]1(O)CC[C@H]2[C@@H]3CCC4=Cc5oncc5C[C@]4(C)[C@H]3CC[C@@]21C [DANAZOL] | 5.87 |
| CC[C@]1(O)CC[C@H]2[C@@H]3CCC4=CCCC[C@@H]4[C@H]3CC[C@@]21C | 6.1 |
| Nc1nc2c(c(=O)[nH]1)N(C=O)C(CNc1ccc(C(=O)N[C@@H](CCC(=O)O)C(=O)O)cc1)CN2 (some centres undefined) [LEUCOVORIN] | 6.1 |

Complete the entry with TOTAL PROTEIN for CC=Cc1ccc(O)c(OC)c1 [ISOEUGENOL]
6.13

###

- Species: Rattus norvegicus
- protocol_description: DrugMatrix - Regimen: Daily Repeat
- Assay type: toxicity, organism-based, Sprague-Dawley
- Set-up: regimen Daily Repeat, gender Male, age 6-8 weeks
- condition_notes: in vivo, po, 0 mg/kg, 120 h, tissue Blood, route oral GAVAGE, dose level Control, time 5 day, vehicle 100 % WATER
measure_name: LYMPHOCYTE (%)
Respond numerically; units are % and should not be typed.

Some molecules with recorded LYMPHOCYTE:
| molecule | LYMPHOCYTE / % |
| --- | --- |
| CC[C@H]1OC(=O)[C@H](C)[C@@H](O[C@H]2C[C@@](C)(OC)[C@@H](O)[C@H](C)O2)[C@H](C)[C@@H](O[C@@H]2O[C@H](C)C[C@H](N(C)C)[C@H]2O)[C@](C)(OC)C[C@@H](C)C(=O)[C@H](C)[C@@H](O)[C@]1(C)O [CLARITHROMYCIN] | 93.5 |
| CCOC(N)=O | 87.5 |
| Cc1c(N(C)CS(=O)(=O)[O-])c(=O)n(-c2ccccc2)n1C.[Na+] [DIPYRONE SODIUM] | 92.33 |

Now look at this entry.
Complete the entry with LYMPHOCYTE for CCN(CC)CC#CCOC(=O)C(O)(c1ccccc1)C1CCCCC1 (centres undefined) [OXYBUTYNIN]
87.33

###

Here the recorded LEUKOCYTE COUNT is given for each entry.
- Species on record: Rattus norvegicus
- protocol_description: DrugMatrix - Regimen: Daily Repeat
- Type: toxicity, organism-based, Sprague-Dawley
- Set-up: regimen Daily Repeat, gender Male, age 6-8 weeks
- condition_notes: in vivo, po, 0 mg/kg, 72 h, tissue Blood, route oral GAVAGE, dose level Control, time 3 day, […]
Respond numerically; units are x10E3/uL and should not be typed.

| molecule | LEUKOCYTE COUNT [x10E3/uL] |
| --- | --- |
| OCCN1CCN(CCCN2c3ccccc3Sc3ccc(C(F)(F)F)cc32)CC1 [FLUPHENAZINE] | 6.95 |

Complete the entry with LEUKOCYTE COUNT for CC[C@H](C)C(=O)O[C@H]1C[C@@H](C)C=C2C=C[C@H](C)[C@H](CC[C@@H]3C[C@@H](O)CC(=O)O3)[C@H]21 [LOVASTATIN]
10.33

Complete the entry with LEUKOCYTE COUNT for CCn1cc(C(=O)O)c(=O)c2cc(F)c(N3CCNCC3)nc21 [ENOXACIN]
16.58

Complete the entry with LEUKOCYTE COUNT for COc1ncnc(NS(=O)(=O)c2ccc(N)cc2)c1OC [SULFADOXINE]
9.73

Complete the entry with LEUKOCYTE COUNT for CC(C)Cc1ccc(CC(=O)O)cc1 [IBUFENAC]
14.08

Complete the entry with LEUKOCYTE COUNT for C#C[C@]1(O)CC[C@H]2[C@@H]3CCc4cc(O)ccc4[C@H]3CC[C@@]21C [ETHINYL ESTRADIOL]
16.58
